- Tested on: HCT116 MTAP null cells
- assay.summary: HCT116 MTAP null cell line proliferation (CellTiter-Glo cell viability, 6 days)
- Assay type: cell-based
- experimental.conditions: HCT116-MTAP null, 144 h, HCT116 MTAP null cells, 6 days of treatment, CellTiter-Glo cell viability; read-out: HCT-116 MTAP null IC50
pIC50: −log10 of the molar value.
property.label: pIC50

P. Nc1nc2ccc(C(=O)N3CCOC[C@@H]3c3ccc(Br)cn3)cc2c2c1COC2 (single isomer, unassigned)
Q. Cn1ncc2c3cc(C(=O)N4CCOCC4c4ccc(C(F)(F)F)cn4)ccc3nc(N)c21 (racemic)
R. CCOc1ccc([C@@H]2COC[C@H](C)N2C(=O)c2ccc3nc(N)c4c(c3c2)CO[C@@H]4C)nn1 (racemic)
// ranking: key=pIC50, reverse=True Write the labels, ordered according to the request.
R, P, Q
(R: 7.03, P: 6.62, Q: 5.96)

====

- System: HCT116 MTAP null cells
- assay.summary: HCT116 MTAP null cell line proliferation (CellTiter-Glo cell viability, 6 days)
- Type: cell-based
- experimental.conditions: HCT116-MTAP null, 144 h, HCT116 MTAP null cells, 6 days of treatment, CellTiter-Glo cell viability; read-out: HCT-116 MTAP null IC50
property.label: IC50 (nM)

Some molecules with known IC50 results, for comparison:
{"columns": ["molecule", "IC50, nM"],
 "data": [
  ["C[C@H]1OCc2c1c(N)nc1ccc(C(=O)N3CCOC[C@H]3c3ccc(C(F)(F)F)cn3)cc21 (racemic) [Example 343]", 308],
  ["C[C@H]1OCc2c1c(N)nc1cnc(C(=O)N3CCOC[C@H]3c3ccc(F)c(C(F)(F)F)c3)cc21 (racemic) [Example 356]", 257],
  ["Nc1nc2ccc(C(=O)N3CCOC[C@@H]3c3ccc(C(F)(F)F)cc3)cc2c2c1COC2 (single isomer, unassigned) [Example 456]", 102],
  ["C[C@H]1OCc2c1c(N)nc1ccc(C(=O)N3C[C@@H](O)[C@H](c4ccc(Cl)cc4)C3)cc21 (single isomer, unassigned) [Example 466]", 189],
  ["COc1ccc([C@H]2COC[C@@H](C)N2C(=O)c2cc3c(cc2F)nc(N)c2cnn(C)c23)nn1 [Example 551]", 6],
  ["Nc1nc2cc(Cl)c(C(=O)N3CC(c4ccc(C(F)(F)F)cc4)C3)cc2c2c1COC2 [Example 430]", 445]
]}

a. Cn1ncc2c(N)nc3cc(Cl)c(C(=O)N4CC(c5ccc(C(F)(F)F)cn5)C4)cc3c21 [Example 442]
b. C[C@@H]1COC[C@H](c2ccc(C(F)(F)F)cc2)N1C(=O)c1cc2c3c(c(N)nc2cn1)COC3 [Example 523]
c. Nc1nc2ccc(C(=O)N3CCOC[C@@H]3c3ccc(C(F)(F)F)nc3)cc2c2c1COC2 (single isomer, unassigned) [Example 609]
d. Nc1nc2cnc(C(=O)N3CCOC[C@@H]3c3cc(Cl)c(Cl)s3)cc2c2c1COC2 (single isomer, unassigned) [Example 618]
e. Nc1nc2ccc(C(=O)N3CCC(F)(F)CC3c3ccc(Br)cc3)cc2c2c1COC2 (racemic) [Example 368]
Put these in order: smallest IC50 first, largest last. Write the labels, ordered according to the request.
b, a, c, d, e
(b: 9 nM, a: 40 nM, c: 207 nM, d: 300 nM, e: 457 nM)
